STUDY SYSTEM: Proteasome Macropain subunit MB1 (Homo sapiens)
Sequence (P28074 whole entry): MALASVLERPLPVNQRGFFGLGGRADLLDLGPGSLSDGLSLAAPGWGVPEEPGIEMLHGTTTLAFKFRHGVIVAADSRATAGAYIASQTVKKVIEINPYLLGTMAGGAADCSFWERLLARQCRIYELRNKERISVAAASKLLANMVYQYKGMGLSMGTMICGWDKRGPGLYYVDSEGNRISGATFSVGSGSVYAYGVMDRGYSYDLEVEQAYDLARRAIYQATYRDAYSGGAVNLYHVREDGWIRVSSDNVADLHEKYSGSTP
TEST DESCRIPTION: Inhibition of human 20S constitutive proteasome beta-5 using Suc-LLVY-AMC as substrate incubated for 15 mins measured for 45 mins by fluorescence assay
Measured pIC50, listed per entry for reference.
The read-out pIC50 is expressed as -log10 of concentration in moles per litre.

smiles_record=NC(=O)C[C@H](NC(=O)OCc1ccccc1)C(=O)N[C@@H](C[C@]1(O)C(=O)Nc2ccccc21)C(=O)NCc1ccccc1 property=pIC50 quantitative_result=6.44
smiles_record=C[C@@H](O)[C@@H](NC(=O)c1ccc(OCc2ccccc2)cc1)C(=O)N[C@@H](C[C@]1(O)C(=O)Nc2ccccc21)C(=O)NCc1ccccc1 property=pIC50 quantitative_result=8.15

Exercise: Reported pIC50 for C[C@H](NC(=O)Cc1cccc(Oc2ccccc2)c1)C(=O)N[C@@H](C[C@]1(O)C(=O)Nc2ccccc21)C(=O)NCc1ccccc1 : what is it?
Solution: 6.46

Exercise: Reported pIC50 for C[C@H](NC(=O)[C@H](Cc1ccc(OCc2ccccc2)cc1)NC(=O)OC(C)(C)C)C(=O)N[C@@H](C[C@]1(O)C(=O)Nc2ccccc21)C(=O)NCC(C)(C)C : what is it?
Solution: 4.95

Exercise: Reported pIC50 for CC(C)c1ccc(CNC(=O)[C@H](C[C@]2(O)C(=O)Nc3ccccc32)NC(=O)[C@H](C)NC(=O)[C@H](Cc2ccc(OCc3ccccc3)cc2)NC(=O)OC(C)(C)C)cc1 : what is it?
Solution: 5.00

Exercise: Reported pIC50 for C[C@H](NC(=O)[C@H](Cc1ccc(OCc2ccccc2)cc1)NC(=O)OC(C)(C)C)C(=O)N[C@@H](C[C@]1(O)C(=O)Nc2ccccc21)C(=O)NC(c1ccccc1)c1ccccc1 : what is it?
Solution: 5.76

Exercise: Reported pIC50 for CC(C)(C)OC(=O)N[C@@H](Cc1ccc(OCc2ccccc2)cc1)C(=O)NCC(=O)N[C@@H](C[C@]1(O)C(=O)Nc2ccccc21)C(=O)NCc1ccccc1 : what is it?
Solution: 5.21
